System: K4 kissing-loop RNA reporter
test: apparent KD of K4 kissing-loop reporter; higher = weaker reporter binding
condition set: Eterna round: R107; input ligand: none
Field: apparent KD of K4 kissing-loop reporter. Provide a value for each of the sequences that follow.
# output: bare number, implied unit nM

Specify measured apparent KD of K4 kissing-loop reporter for AGAUUCGACACGGCCGCCACUUGUGGUGGAUUAUCCUAUGUAAGACAUGAGUGAUGUUCAUGUACAAGGACCGGGUGUUGAGUCU [KL-XTryp-B4 #analogue] .
199

Specify measured apparent KD of K4 kissing-loop reporter for AAGUGUCAUUAGACACAGACUACAAUACGCUAGGAUAUGCUGAUAAGCAGAAGGAGUGAUGUUCCUUUCAAGUAGUCAAUUAAAU [FmnAX 22 Mat Inspired #SwitchBubble #StaticStem #K4Late] .
136

Specify measured apparent KD of K4 kissing-loop reporter for AAUAAGCGCCGAAGGAGCGGCCUCCGAGUGAUGUUCGGUGAGAUGCCAGUGAUGUUGGCCGGCCAGGUAGGUCGCGGCAAAGCUU [Same State Arginine B GF 29] .
161

Specify measured apparent KD of K4 kissing-loop reporter for UGAUAAAGCAGUGAUGUUGCAAGUAAUGAUACCAGUUAAGAAGAGAACCCUUGGCAGCAUAAAGUGCGCUCUGAUGAGUGUGCUU [whbob_SS_Theo_A_w52] .
111

Specify measured apparent KD of K4 kissing-loop reporter for ACCUACGAUCACAAUAGUGAUUGUAGGAACUAGGAUAUGCUGAAAAGCAGAAGGAGUGAUGUUCCAACUCAUGAAUAACAUGAGA [FmnAX 2 #OpenEnded #K4Late] .
249

Specify measured apparent KD of K4 kissing-loop reporter for AAGUAGCUCUCGGCCGCCACUCCUCAGUGAUGUUGAGAUAUUAAUUGCCAAUUGGCGUAUUUAAAGAGGACCGGGAGAGCUACAA [AK3 SS Tryptophan B] .
378

----------
Field: apparent KD of MS2 coat protein. Provide a value for each of the sequences that follow.
Test system: MS2 coat protein
test: apparent KD of MS2 coat protein; designed switch direction (-1 OFF switch, 1 ON switch): 1; higher = weaker reporter binding
condition set: Eterna round: R95; input ligand: microRNA oligo, concentration not stated
# output: bare number, implied unit nM

Specify measured apparent KD of MS2 coat protein for AUAAGGCAAGCUUUUUUCUCGUUGUGUAAACAUGAGGAUCACCCAUGUGCUCGCCCUGGAUCUUUGGAUCGCAGAAA [Rarisooron] (puzzle: Sensor for hsa-mir-208a) .
33.6

Specify measured apparent KD of MS2 coat protein for CUCAAACAUGAGGAUCACCCAUGUGUUGUCAUGGGAGGAUAUCCAAGUUCGUUGUAGUCGGGAGAAGGCCUAUGUC [× ×•×ª×• ×ž×“×™× ×” × ×—×ª-12] (puzzle: Same State 1) .
139

Specify measured apparent KD of MS2 coat protein for CUCAAAACAAGCUGCAGUGUUCGUCUUUAACAUGAGGAUCACCCAUGUAGUAGCCCGGUGGAAGCGCUCGGGCCACC [Antetera] (puzzle: Sensor for hsa-mir-208a) .
27.8

Specify measured apparent KD of MS2 coat protein for GCACAUGCACAUGAGGAUCACCCAUGUCCCGCGCCCAUUAGGGCGCGGUGGCCGCAAGUUUUUUGCUCGUCUUAUAA [BIOPHYS241_ElaineNg_2] (puzzle: Sensor for hsa-mir-208a version 2) .
21.3

Specify measured apparent KD of MS2 coat protein for UGAGCCGGCACUGAGGAUAUUCAUAUUUAAACAUGAGGAUCACCCAUGUAGGCCAGAAGGCCUUGGGAGAAGGCAGGUCGGCUCU [salish99_ss2_r3_078] (puzzle: Same State 2) .
258

Specify measured apparent KD of MS2 coat protein for AGUCCAGCCUGAGCUGGACAAAAGCAUGUACAUGAGGAUCACCCAUGUCAUGUACAAGCUUUUUGCUCGUCAAAAUA [Mat - hsa-mir-208a - Mod of JL - D29] (puzzle: Sensor for hsa-mir-208a) .
16.5

----------
Test system: MS2 coat protein
test: apparent KD of MS2 coat protein; designed switch direction (-1 OFF switch, 1 ON switch): -1; higher = weaker reporter binding
condition set: Eterna round: R95; input ligand: microRNA oligo, concentration not stated
// classify(record): look up apparent KD of MS2 coat protein in ranges low = under 20 nM, mid = from 20 nM up to 60 nM, high = 60 nM and over

Band assignment needed for GAAAAGGUAGGAUAUACGAAAAAAAAAGGUAGAAAAAAAACACAUGAGGAUCACCCAUGUAGAAGGACCAAAAG [salish99_ex2_r3_070] (puzzle: Exclusion 2) please.
mid

Band assignment needed for AUUUAACAUGAGGAUCACCCAUGUGAGGAUAUGUCCAUAUUCGGCAAAUCGGAUAUGGACAGAAGGCACACCGG [JR_Exclusion1_Sub008] (puzzle: Exclusion 1) please.
high

Band assignment needed for GCAGGAUAAGUUAGGAUAUACCUAUGGAUACAUAGGUAGAAGGGACAUGAGGAUCACCCAUGUGACUCACCUGC [Fiskers BMX 4 - 63] (puzzle: Brourd's mod of Exclusion 4) please.
low

Band assignment needed for CUGAGCUCAGGAUAUACAUGAGGAUCACCCAUGUGUUCCUGCGACGUUAGUUGCACAUGUAGAAGGGAGUUCGG [Less Extended Mod of JL - ex3-3.35 Brourd mod] (puzzle: Exclusion 3) please.
high

Band assignment needed for AUCAUGUCAGGAUAUCUGAUAUGGAUCUUCGGAUCAAGUUCAGAGAAGGGACAUGAGGAUCACCCAUGUCGAAC [Ex4-3: 31] (puzzle: Exclusion 4) please.
mid

Band assignment needed for GGUCGAAAACAGCUCCGCGCUGCCCUCGACCGCUCAUUUACAUGAGGAUCACCCAUGUUUUUUGCUUGUCUUGUUUC [Esrionus] (puzzle: Sensor v3, turn-off variant 2) please.
high

Band assignment needed for CAUACUGAAGUUAGGAUAUUCGGACGAAUACGGAUGGAGAAGGGACAUGAGGAUCACCCAUGUAGAUAGUAAAG [EX-4 Malc #13] (puzzle: Brourd's mod of Exclusion 4) please.
mid

Band assignment needed for CAGUACUGAGGAUAUACAUGAGGAUCACCCAUGUGUCCCUGCUAGGAAACUAGCAAUAGUAGAAGGCAGUACUG [Fiskers Ex 3 828 mod 4] (puzzle: Exclusion 3) please.
low

Band assignment needed for GGUGCGUAUGUGAGGAUAUGCUGGUCCUUGGCUCGGCAGAAGGCACAUGAGGAUCACCCAUGUGGUGUCGUUCC [salish99_Bmod_ex4_055] (puzzle: Brourd's mod of Exclusion 4) please.
mid

Band assignment needed for UACUAUAAGGAGGAUAUCGUAUCGGAAACGAUACGAGAAGGCUUAACAUGAGGAUCACCCAUGUUCUUCAAUAA [Fiskers Ex 6 - 25] (puzzle: Exclusion 6) please.
low

Band assignment needed for AGGGAUAAAGGAUAUACAUGAGGAUCACCCAUGUUGAGGAAAGUGAGAUGAGGAGGAAGUAGAAGGUUAGGCGG [JR_Exclu3_Sub084] (puzzle: Exclusion 3) please.
mid

Band assignment needed for GGAAAGCAAGGAUAUACAAGGAAACGAUGGAAAGUAGAGAGACAUGAGGAUCACCCAUGUAGAAGGUGCGAGAG [JR_Exclu2_Sub037] (puzzle: Exclusion 2) please.
mid

Band assignment needed for UUUAAUUUUUUUUUUUUACAAGCUUUUUGCUCGUCUUAUACAUGAGGAUCACCCAUGUAAGUGGGAAAUGAAUUAUC [JMF 99] (puzzle: Sensor v3, turn-off variant 2) please.
high

Band assignment needed for AGUACUAUGCGAGCUGACUUGCGUAGUGCAGCAGGUGUAACAUGAGGAUCACCCAUGUCCUCAUUUGCUCGUCUUAU [Mat - Sensor v3 - Turn-off var 2 - D8] (puzzle: Sensor v3, turn-off variant 2) please.
high

Band assignment needed for CGGUACUGAGGAUAUACAUGAGGAUCACCCAUGUGUUCUAGCUAGCGUACUGGCAUUAGUAGAAGGCGGUGCUG [JL-ex3-3.18 Brourd mod] (puzzle: Exclusion 3) please.
low

Band assignment needed for CCCGUGUUAGGAUAUACGGCACACCUGCCAGCAGGUGUAUAGUAGAAGGAACAUGAGGAUCACCCAUGUAUAGC [Rizausma] (puzzle: Exclusion 4) please.
mid

Band assignment needed for GAAAAGGUAGGAUAUACGAAAAAAAAGGGUAGAAAAAAAACACAUGAGGAUCACCCAUGUAGAAGGACCAAGAG [salish99_ex2_r3_039] (puzzle: Exclusion 2) please.
mid

----------
System: K4 kissing-loop RNA reporter;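 also: bound reporter read as fluorescence of individual clusters on recovered sequencing chips by microscopy, with normalized cluster intensities fitted with a binding model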
test: apparent KD of K4 kissing-loop reporter; higher = weaker reporter binding
condition set: Eterna round: R107; input ligand: tryptophan 2.4 mM
assay readout: apparent KD of K4 kissing-loop reporter (nM)
# output: bare number, implied unit nM

Specify measured apparent KD of K4 kissing-loop reporter for UGAUACCAGGCGGCCGCCACUCCUACAGGUCAAAGACCUGUAAAACUGGUUUUUUAGUGAUGUUGGAGGACCGGGCCUGGUAUCU [FiskerMod 28 - Jieux - Exclusion - Tryptophan B] .
177

Specify measured apparent KD of K4 kissing-loop reporter for UGAUAGGACAGAAGGAGCGGAGGUCGUCAAAGACGACCAAUACGUUAAAUAGGAGUGAUGUUCCAGGUAGGUCGCUGUCCUAUCU [ArgBX 30 #SwitchBubble #StaticStem] .
106

Specify measured apparent KD of K4 kissing-loop reporter for GUCCCGAGUGAUGUUCGGGUCGUUCGGGAAGGAGCGCCCGGAAGGGCAGGUAGGUCGCCCGGAUCCCUCAGGUAACUGAGGGACC [#2 Same State - Arginine A Attempt #25 (HarryS)] .
466

Specify measured apparent KD of K4 kissing-loop reporter for AAAUUUAUUAUAUUUGAAUAAAUAUGUGAUACCAGACAUUUAUAAGUCCCUUGGCAGCACAAUGCAGUGAUGUUGCUUAUAAUAA [JR_SSTheophyA_Sub018] .
73.8

Specify measured apparent KD of K4 kissing-loop reporter for AAUAAGUGUCAGCGAGUGAUGUUCGACGAUACCAGCCUCGAUAGAGGCCCUUGGCAGCGUAACGCAUGCCAAACUGGCACAAUAA [#SwitchBubble 7 #K4Early] .
441

Specify measured apparent KD of K4 kissing-loop reporter for CACGGAGUGAUGUUCCGACCGAGGAACGAUACCAGACAAGUAUACGUCCCUUGGCAGCGUUUCUUAUAUAGUCAACGUUACCGUA [Theo A Ex t3] .
405

Specify measured apparent KD of K4 kissing-loop reporter for UUCCACCGAGAAGGAUAUUAUGCUGGACUUGUUUAAGUGUUAAAUAGUGAUGUUAUUUGAUCGGAAUAAGAAGGUCUCAAGUUGA [theeternabot_sameState_KL_FMN_B_44] .
119

Specify measured apparent KD of K4 kissing-loop reporter for AAGUGUCAUUAGACACAGACUACAAUACGCUAGGAUAUGCUGAUAAGCAGAAGGAGUGAUGUUCCUUUCAAGUAGUCAAUUAAAU [FmnAX 22 Mat Inspired #SwitchBubble #StaticStem #K4Late] .
124

Specify measured apparent KD of K4 kissing-loop reporter for AUGGUGGAGGAGUGAUGUUCUUGGAGUAGGUAGGAUAUGAGUGAUGUUAGAAGGAUCGGAGUGAUGUUCCAGGUGGUUGUGUUGU [KL-SSFMN-A2] .
412
